molecular target: EGFR L858R/T790M/C797S mutant (Homo sapiens (Human), UniProt P00533, C797S/L858R/T790M); test: HotSpot radiometric kinase assay, EGFR L858R/T790M/C797S mutant; conditions: 10 μM ATP
Sequence (P00533 25-1210 T790M/C797S/L858R): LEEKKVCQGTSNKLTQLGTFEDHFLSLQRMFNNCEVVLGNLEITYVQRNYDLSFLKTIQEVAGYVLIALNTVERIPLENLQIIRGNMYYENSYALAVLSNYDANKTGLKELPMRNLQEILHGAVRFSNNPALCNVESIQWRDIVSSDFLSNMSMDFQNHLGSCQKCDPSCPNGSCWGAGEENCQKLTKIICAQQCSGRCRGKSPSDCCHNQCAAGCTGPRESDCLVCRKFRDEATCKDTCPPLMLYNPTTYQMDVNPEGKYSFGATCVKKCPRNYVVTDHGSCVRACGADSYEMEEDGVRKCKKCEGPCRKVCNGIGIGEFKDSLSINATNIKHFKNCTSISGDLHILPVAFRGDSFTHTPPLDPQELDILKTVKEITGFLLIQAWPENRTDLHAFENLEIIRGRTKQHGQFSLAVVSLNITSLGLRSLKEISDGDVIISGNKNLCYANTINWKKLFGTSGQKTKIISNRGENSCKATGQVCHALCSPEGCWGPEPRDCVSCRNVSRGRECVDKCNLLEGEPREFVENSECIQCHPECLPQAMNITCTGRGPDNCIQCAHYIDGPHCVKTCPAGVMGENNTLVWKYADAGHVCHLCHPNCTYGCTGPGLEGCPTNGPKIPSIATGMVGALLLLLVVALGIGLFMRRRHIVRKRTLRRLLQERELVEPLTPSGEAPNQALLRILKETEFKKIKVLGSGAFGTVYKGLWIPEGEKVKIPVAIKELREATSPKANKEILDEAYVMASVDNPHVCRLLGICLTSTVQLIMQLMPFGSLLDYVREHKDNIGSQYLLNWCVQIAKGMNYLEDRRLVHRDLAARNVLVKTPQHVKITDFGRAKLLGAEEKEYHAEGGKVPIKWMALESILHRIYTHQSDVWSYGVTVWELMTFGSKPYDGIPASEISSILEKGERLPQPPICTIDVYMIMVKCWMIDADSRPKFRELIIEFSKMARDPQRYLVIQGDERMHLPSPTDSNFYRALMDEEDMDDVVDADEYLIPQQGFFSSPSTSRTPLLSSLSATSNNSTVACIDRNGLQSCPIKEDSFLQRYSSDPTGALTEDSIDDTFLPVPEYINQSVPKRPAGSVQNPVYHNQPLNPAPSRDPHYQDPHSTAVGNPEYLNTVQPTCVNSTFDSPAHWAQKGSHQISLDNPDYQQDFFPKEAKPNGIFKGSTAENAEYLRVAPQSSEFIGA
Value type: pIC50
Schema: pIC50 number; meaning minus log10 of the concentration expressed in molar units.

Reported pIC50 for CCOc1nn(CCO)c2c1/C=C/c1n[nH]c3ccc(cc13)-c1c(C)nn(C)c1OC[C@H](C)N(C1CC1)C2 [Example 205] : what is it?
8.95

Quick one: Cc1nn(CCO)c2c1/C=C/c1n[nH]c3ccc(cc13)-c1cnn(C)c1OCCCO2 [Ex. 22]
9.27

Quick one: Cc1nn(CCN2CCCC2)c2c1/C=C/c1n[nH]c3ccc(cc13)-c1cnn(C)c1C(C)OCCO2 (centres unmarked) [Example 100]
7.72

Quick one: Cn1ncc2c1COCCOc1ccccc1/C=C/c1n[nH]c3ccc-2cc13 [Ex. 1]
6.59

Quick one: Cc1c2c(nn1C)OCCOCc1c(cnn1C)-c1ccc3[nH]nc(c3c1)/C=C/2 [Ex. 7]
6.70

Quick one: Cc1nn(C)c2c1/C=C/c1n[nH]c3ccc(cc13)-c1cnn(C)c1OCCN(C)C2 [Example 43]
7.46

Quick one: CCOC(=O)Cn1nc(OCC)c2c1CN(CC)C[C@H](C)Oc1c(cnn1C)-c1ccc3[nH]nc(c3c1)/C=C/2 [Example 218]
8.69

Quick one: CCc1nn(CCN2CC[C@H](O)C2)c2c1/C=C/c1n[nH]c3ccc(cc13)-c1cnn(C)c1OCCCO2 [Example 69]
7.59

---

molecular target: EGFR L858R/T790M mutant (Homo sapiens (Human), UniProt P00533, L858R/T790M); assay: HotSpot radiometric kinase assay, EGFR L858R/T790M mutant; conditions: 10 μM ATP
Sequence (P00533 25-1210 T790M/L858R): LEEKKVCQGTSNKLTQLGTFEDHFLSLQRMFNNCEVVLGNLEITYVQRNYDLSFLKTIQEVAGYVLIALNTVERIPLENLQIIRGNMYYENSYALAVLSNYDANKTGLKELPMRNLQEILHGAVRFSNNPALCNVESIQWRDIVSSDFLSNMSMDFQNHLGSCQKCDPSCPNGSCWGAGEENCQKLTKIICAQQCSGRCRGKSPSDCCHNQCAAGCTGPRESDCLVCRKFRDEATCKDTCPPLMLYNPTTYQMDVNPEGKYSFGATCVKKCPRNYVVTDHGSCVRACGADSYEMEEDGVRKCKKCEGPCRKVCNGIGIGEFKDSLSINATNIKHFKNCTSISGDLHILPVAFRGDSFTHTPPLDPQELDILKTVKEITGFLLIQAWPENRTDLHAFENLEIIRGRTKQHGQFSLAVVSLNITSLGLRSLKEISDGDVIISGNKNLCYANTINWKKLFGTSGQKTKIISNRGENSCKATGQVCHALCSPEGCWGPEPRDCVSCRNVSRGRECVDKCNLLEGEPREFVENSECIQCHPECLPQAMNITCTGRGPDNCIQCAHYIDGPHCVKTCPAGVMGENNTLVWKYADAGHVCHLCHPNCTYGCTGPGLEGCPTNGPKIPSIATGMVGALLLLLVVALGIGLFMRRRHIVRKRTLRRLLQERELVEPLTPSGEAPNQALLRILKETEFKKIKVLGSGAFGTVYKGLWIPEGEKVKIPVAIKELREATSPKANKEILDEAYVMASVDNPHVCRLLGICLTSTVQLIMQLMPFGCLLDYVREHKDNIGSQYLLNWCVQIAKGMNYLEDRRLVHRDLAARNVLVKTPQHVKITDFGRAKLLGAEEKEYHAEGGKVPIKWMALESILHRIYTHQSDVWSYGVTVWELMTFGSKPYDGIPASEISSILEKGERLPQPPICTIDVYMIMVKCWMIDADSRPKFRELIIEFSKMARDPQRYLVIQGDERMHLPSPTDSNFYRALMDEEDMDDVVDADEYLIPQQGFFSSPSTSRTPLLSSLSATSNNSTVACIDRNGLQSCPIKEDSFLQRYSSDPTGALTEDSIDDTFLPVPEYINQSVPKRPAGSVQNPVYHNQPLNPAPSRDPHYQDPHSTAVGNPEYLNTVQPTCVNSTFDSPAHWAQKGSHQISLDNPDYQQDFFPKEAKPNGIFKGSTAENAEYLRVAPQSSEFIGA
Categories are assigned from the measured IC50 using these intervals: low group = under 0.8 nM, middle group = from 0.8 nM up to 1 nM, high group = 1 nM and over

Looking at Cc1c2c(nn1CCO)OCCOC(C)c1c(cnn1C)-c1ccc3[nH]nc(c3c1)/C=C/2 (centres unmarked) , which class would you pick?
high group

Turning to the following compound.
Looking at `Cc1c2c(nn1C[C@@H](C)O)CN(C)C[C@H](C)Oc1c(cnn1C)-c1ccc3[nH]nc(c3c1)/C=C/2` , which class would you pick?
low group

---

molecular target: EGFR L858R/T790M mutant (Homo sapiens (Human), UniProt P00533, L858R/T790M); assay: HotSpot radiometric kinase assay, EGFR L858R/T790M mutant; details: 10 μM ATP
Value type: log10 IC50 (log10 of the value in nM)
Values are log10 of IC50 in nM.

Recorded results for 5 compounds are shown here.
Recorded log10 IC50 for Cc1onc2c1/C=C/c1n[nH]c3ccc(cc13)-c1cnn(C)c1O[C@@H](C)CN(C)C2 [Example 134] with EGFR L858R/T790M mutant (Homo sapiens (Human), UniProt P00533, L858R/T790M), please?
1.38

Quick one: Cc1c2c(nn1C)/C=C/c1n[nH]c3ccc(cc13)-c1cnn(C)c1O[C@@H](C)CN(C(C)C)C2 [Example 233]
0.12

Quick one: CCOc1nn(CCO)c2c1/C=C/c1n[nH]c3ccc(cc13)-c1cnn(CC)c1O[C@@H](C)CN(C)C2 [Example 168]
-0.14

Quick one: Cc1c2c(nn1[C@H]1CCNC[C@@H]1O)OCCCOc1c(cnn1C)-c1ccc3[nH]nc(c3c1)/C=C/2 (racemic) [Example 81]
0.23

Quick one: Cc1nn(C[C@@H](C)O)c2c1/C=C/c1n[nH]c3ccc(cc13)-c1cnn(C)c1O[C@@H](C)CN(C)C2 [Example 127]
-0.82

---
Recorded log10 IC50 for CC(C)Oc1nn(CCO)c2c1/C=C/c1n[nH]c3ccc(cc13)-c1cnn(C)c1O[C@@H](C)C(=O)N(C)C2 [Example 220] with EGFR L858R/T790M mutant (Homo sapiens (Human), UniProt P00533, L858R/T790M), please?
1.36

Quick one: CCN1Cc2c(c(OC(C)C)nn2CCO)/C=C/c2n[nH]c3cc(F)c(cc23)-c2cnn(C)c2O[C@@H](C)C1 [Example 216]
-0.36

---

target: EGFR L858R/T790M/C797S mutant (Homo sapiens (Human), UniProt P00533, C797S/L858R/T790M); experiment: HotSpot radiometric kinase assay, EGFR L858R/T790M/C797S mutant; settings: 10 μM ATP
We begin with a simple list: items and their reported IC50.
Numeric only. Scale: nM

Reported IC50 for Cc1nn([C@H]2CN(C)C[C@@H]2O)c2c1/C=C/c1n[nH]c3ccc(cc13)-c1cnn(C)c1CN(C)CCO2 (racemic) : what is it?
12.1

Quick one: `Cc1nn(C)c2c1/C=C/c1n[nH]c3ccc(cc13)-c1cnn(C)c1O[C@H]1CCCN(C2)C1`
13.1

Quick one: `CCN1Cc2nn(C)c(C)c2/C=C/c2n[nH]c3ccc(cc23)-c2cnn(C)c2O[C@@H](C)C1`
1.02

Quick one: `Cc1c2c(nn1CCO)CNC[C@H](C)Oc1c(cnn1C)-c1ccc3[nH]nc(c3c1)/C=C/2`
84.4

Quick one: `C[C@H](C#N)Oc1nn(CCO)c2c1/C=C/c1n[nH]c3cc(F)c(cc13)-c1cnn(C)c1O[C@@H](C)CN(C)C2`
0.52

Quick one: `Cc1c2c(nn1CCN1CCN(C)CC1)CN(C)C[C@H](C)Oc1c(cnn1C)-c1ccc3[nH]nc(c3c1)/C=C/2`
0.81

Quick one: `CCOc1nn(CCO)c2c1/C=C/c1n[nH]c3ccc(cc13)-c1c(C)nn(C)c1O[C@H](C)CN(C1CC1)C2`
2.53

Quick one: `Cc1nn(C)c2c1/C=C/c1n[nH]c3ccc(cc13)-c1cnn(C)c1O[C@@H]1CCN(C2)C1`
8.89

Quick one: `CCOc1nn(CCO)c2c1/C=C/c1n[nH]c3ccc(cc13)-c1cnn(C)c1OC[C@H](C)N(C1CC1)C2`
0.26

Quick one: `CCOc1nn(CCO)c2c1/C=C/c1n[nH]c3cc(F)c(cc13)-c1cnn(C)c1O[C@@H](C)CN(C)C2`
1.34

---
Reported IC50 for `CCOc1nn(C)c2c1/C=C/c1n[nH]c3cc(F)c(cc13)-c1cnn(C)c1O[C@@H](C)CN(CC)C2` : what is it?
1.46

Quick one: Cc1nn([C@@H]2COC[C@H]2O)c2c1/C=C/c1n[nH]c3ccc(cc13)-c1cnn(C)c1OCCCO2 (single isomer, unassigned)
453

Quick one: `CCN1Cc2c(c(OC(C)C)nn2CC(C)(C)O)/C=C/c2n[nH]c3ccc(cc23)-c2cnn(C)c2O[C@@H](C)C1`
1.67

---

target: EGFR L858R/T790M mutant (Homo sapiens (Human), UniProt P00533, L858R/T790M); assay: HotSpot radiometric kinase assay, EGFR L858R/T790M mutant; format: biochemical; settings: 10 μM ATP
Value type: IC50 (nM)
Numeric only. Scale: nM

Reported IC50 for `CCOc1nccc2c1/C=C/c1n[nH]c3ccc(cc13)-c1cnn(C)c1O[C@@H](C)CN(C)C2` : what is it?
5.92

Quick one: `Cc1nn(C)c2c1/C=C/c1n[nH]c3ccc(cc13)-c1cnn(C)c1O[C@@H]1CCN(C2)C1`
3.42

---
Reported IC50 for `Cc1c2c(nn1C)/C=C/c1n[nH]c3ccc(cc13)-c1cnn(C)c1O[C@@H](C)CN(C)C2` : what is it?
2.07

Quick one: `Cc1nn(C)c2c1/C=C/c1n[nH]c3ccc(cc13)-c1cnn(C)c1O[C@@H](C)CN(C1COC1)C2`
1.19

Quick one: `CC(C)Oc1nn(CCO)c2c1/C=C/c1n[nH]c3ccc(cc13)-c1cnn(C)c1OC[C@H](C)N(C1CC1)C2`
0.42

Quick one: Cc1nn(CCO)c2c1/C=C/c1n[nH]c3ccc(cc13)-c1cnn(C)c1OC(C1CCC1)CN(C)C2 (centres unmarked)
0.58

Quick one: `CCOC(=O)Cn1nc(OCC)c2c1CN(CC)C[C@H](C)Oc1c(cnn1C)-c1ccc3[nH]nc(c3c1)/C=C/2`
1.99

Quick one: `CC(C)Oc1nn([C@@H](C)CO)c2c1/C=C/c1n[nH]c3cc(F)c(cc13)-c1cnn(C)c1O[C@@H](C)CN(C)C2`
1.41

Quick one: C[C@H]1CN(C)Cc2c(c(OC3CC(S(C)(=O)=O)C3)nn2C)/C=C/c2n[nH]c3ccc(cc23)-c2cnn(C)c2O1 (some centres unmarked)
0.47

Quick one: `CC(C)Oc1nn(CCO)c2c1/C=C/c1n[nH]c3ccc(cc13)-c1cnn(C3CC3)c1O[C@@H](C)CN(C)C2`
1.71

Quick one: `CC(C)Oc1nn(CCO)c2c1/C=C/c1n[nH]c3ccc(cc13)-c1cnn(C)c1O[C@@H](CO)CN(C)C2`
0.48
